Assay: Cytotoxicity against human MT4 cells assessed as reduction in cell viability by MTT assay
Assay type: toxicity, cell-based
The following compounds are shown together with reported CC50 values.

1. CCc1c(C(N=[N+]=[N-])c2cc(OC)cc(OC)c2)nc(SC(C)C)[nH]c1=O (stereo not drawn)    > 321 µM
2. Cc1ccc(C(N=[N+]=[N-])c2nc(SC(C)C)[nH]c(=O)c2C(C)C)cc1 (stereo not drawn)    > 350 µM

Continue with the next compound.
Ask: Given the compound CC(C)Sc1nc(C(N=[N+]=[N-])c2ccc(Cl)cc2)c(C(C)C)c(=O)[nH]1 (stereo not drawn) , what is its reported CC50?
Reply: > 331 µM

Cited source for all entries: ChEMBL document CHEMBL5352488
